As shown below, each of these binders has a reported Bmax value.
Target: T1, human sodium-dependent phosphate transporter 2B (NaPi2b) (human, UniProt O95436 1-690)
T1 construct: UniProt ID is given as 095436 [sic]; also called hNaPi2b; Hu NaPi2b
T1 sequence: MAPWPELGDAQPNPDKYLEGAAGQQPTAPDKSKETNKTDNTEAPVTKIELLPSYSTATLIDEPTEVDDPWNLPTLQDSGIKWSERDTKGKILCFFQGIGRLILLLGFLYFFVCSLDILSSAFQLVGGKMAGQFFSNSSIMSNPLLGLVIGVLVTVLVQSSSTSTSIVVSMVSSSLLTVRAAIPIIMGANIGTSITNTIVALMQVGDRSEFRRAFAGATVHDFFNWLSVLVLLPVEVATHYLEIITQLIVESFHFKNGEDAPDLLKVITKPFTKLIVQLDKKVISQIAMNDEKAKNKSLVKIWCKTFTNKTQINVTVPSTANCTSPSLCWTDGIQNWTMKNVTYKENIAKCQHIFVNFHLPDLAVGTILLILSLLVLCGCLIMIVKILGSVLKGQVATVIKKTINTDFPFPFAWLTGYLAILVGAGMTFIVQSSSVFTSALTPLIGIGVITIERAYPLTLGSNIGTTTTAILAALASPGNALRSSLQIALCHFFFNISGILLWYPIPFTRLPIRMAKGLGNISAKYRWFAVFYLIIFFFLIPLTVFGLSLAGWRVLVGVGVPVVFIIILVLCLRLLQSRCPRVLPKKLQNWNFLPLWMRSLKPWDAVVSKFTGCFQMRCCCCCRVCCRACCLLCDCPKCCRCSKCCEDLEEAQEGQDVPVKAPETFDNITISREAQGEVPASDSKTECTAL
Assay: flow cytometry, IGROV-1 cells (endogenous NaPi2b)
Parameters: unit not given here
Reported property: Bmax

1) v29454 (H3L2) (antibody, human IgG1, kappa, V domains shown, Humanized IgG1/kappa) VH: QVQLVQSGAEVKKPGASVKMSCKASGFTFTSYNVHWVRQAPGQGLEWIAAISPGNGDLSYAQKFQGRATLTVDTSTSTAYMELSSLRSEDTAVYYCARGRTGMGAVDYWGQGTLVTVSS VL: DVQMTQSPSSLSASVGDRVTITCRASQDVYSYLNWYQQKPGKAVKLLIYYTSRLQSGVPSRFSGSGSGTDYTLTISSLQPEDFATYYCQQYNIFPWTFGQGTKLEIKR :: 42300
2) v29451 (H2L3) (antibody, human IgG1, kappa, V domains shown, Humanized IgG1/kappa) VH: QVQLVQSGAEVKKPGASVKVSCKASGFTFTSYNVHWVRQAPGQGLEWIAAISPGNGDLSYAQKFQGRVTMTVDTSTSTVYMELSSLRSEDTAVYYCARGRTGMGAVDYWGQGTLVTVSS VL: DVQMTQSPSSLSASVGDRVTITCRASQDVYSYLNWYQQKPGKAVKLLIYYTSRLQSGVPSRFSGSGSGTDYTLTISSLQPEDIATYYCQQYNIFPWTFGQGTKLEIKR :: 46200
